- Test system: NCI-H1373
- experimental-protocol: 3D cell proliferation assay, KRAS G12C mutant cell line NCI-H1373
- Type: cell-based
- assay-conditions: Homo sapiens, 168 h, 7 day
observation-type: IC50

## Task Item: C=CC(=O)N1CCN(c2nc(OC[C@@H]3CCCN3C)c(C#N)c3c2CCN(c2cccc4cccc(Cl)c24)C3)C[C@@H]1CC#N (single isomer, unassigned) Test system: NCI-H1373 Read-out: IC50 Value: ?
## Result 100 to 200 nM

---

- Test system: CO-04-0070
- experimental-protocol: 3D cell proliferation assay, CO-04-0070 patient derived cell line
- Format: cell-based
- assay-conditions: 168 h, CO-04-0070 (PDC), 7 day
pIC50: −log10 of the molar value.
observation-type: pIC50

## Task Given C=CC(=O)N1CCN(c2nc(OC[C@@H]3CCCN3C)c(C#N)c3c2CCN(c2cccc4cccc(Cl)c24)C3)C[C@@H]1CC#N (single isomer, unassigned) , state its recorded pIC50.
## Result 6.70 to 7.00
